Test system: TE-4 (Esophageal Squamous Cell Carcinoma)
Assay: combination Emax (second highest fraction inhibited in the dose matrix, 72 h); higher = more inhibition; extreme values may be limits of the assay
# reported combination Emax; entries follow
Just the number, please.

The examples below pair each entry with its known result.
Exercise: Form field: reported combination Emax of Cc1c2c(nn1C)CSCc1cc(n(C)n1)CSc1cc(c3ccccc3c1)OCCCc1c(C(=O)O)n(C)c3c-2c(Cl)ccc13 [AZD5991] + C1CN(CCC1(C(=O)N[C@@H](CCO)C2=CC=C(C=C2)Cl)N)C3=NC=NC4=C3C=CN4 [Capivasertib] (first compound max 1 µM, 7x7, partner max 3 µM)
Key: 0.81

Exercise: Form field: reported combination Emax of CCc1c2c(nc3ccc(O)cc13)-c1cc3c(c(=O)n1C2)COC(=O)[C@]3(O)CC [SN-38] + O=C(c1cc(Cc2n[nH]c(=O)c3ccccc23)ccc1F)N1CCN(C(=O)C2CC2)CC1 [Olaparib] (first compound max 0.3 µM, 7x7, partner max 10 µM)
Key: 0.402

Exercise: Form field: reported combination Emax of COc1nnc2ccc(N3CCC(c4ccc(OCCN5CCN(C)C(=O)[C@H]5C)cc4)CC3)nn12 [AZD5153] + Cn1cnc2c(F)c(Nc3ccc(Br)cc3Cl)c(C(=O)NOCCO)cc21 [Selumetinib] (first compound max 1 µM, 7x7, partner max 10 µM)
Key: 0.871

New cases:
Exercise: Form field: reported combination Emax of COc1nnc2ccc(N3CCC(c4ccc(OCCN5CCN(C)C(=O)[C@H]5C)cc4)CC3)nn12 [AZD5153] + C[C@@H]1COCCN1C2=NC(=NC(=C2)C3(CC3)[S@](=N)(=O)C)C4=C5C=CNC5=NC=C4 [AZD6738] (first compound max 1 µM, 7x7, partner max 10 µM)
Key: 0.898

Exercise: Form field: reported combination Emax of Cc1c2c(nn1C)CSCc1cc(n(C)n1)CSc1cc(c3ccccc3c1)OCCCc1c(C(=O)O)n(C)c3c-2c(Cl)ccc13 [AZD5991] + Cn1cnc2c(F)c(Nc3ccc(Br)cc3Cl)c(C(=O)NOCCO)cc21 [Selumetinib] (first compound max 1 µM, 7x7, partner max 3 µM)
Key: 0.453
